We begin with a simple list: items and their reported Kd.
# protocol_summary: Protein Plasma Binding (PPB) assay (TRANSIL)
# Assay type: in vitro ADME, human
# test_conditions: human, human serum albumin and human α1 acid glycoprotein (TRANSIL); read-out: kD (dissociation constant, plasma protein binding)
Form entry: value (µM) — number only.

compound	value_measured
COc1cc2c(cc1OC)CN(CCc1ccc(NC(=O)c3cc(OC)c(OC)cc3NC(=O)c3cnc4ccccc4c3)cc1)CC2 [Tariquidar, reference compound]	64.7

// below: Kd requested for another compound
Query string: Need Kd of COc1cc(NC(=O)c2cnc3ccccc3c2)c(C(=O)Nc2ccc(CCN3CCc4cc(OCCF)c(OC)cc4C3)cc2)cc1OC [Formula 1a] , thanks.
Result string: 717

----------
# Test system: plasma proteins based on human serum albumin and human α1 acid glycoprotein
# protocol_summary: Protein Plasma Binding (PPB) assay (TRANSIL)
# Format: in vitro ADME
# test_conditions: read-out: kD (dissociation constant, plasma protein binding)
recorded_metric: pKd
# log scale: pKd equals minus log10 of the concentration in mol/L

Query string: Need pKd of COc1cc(NC(=O)c2cnc3ccccc3c2)c(C(=O)Nc2ccc(CCN3CCc4cc(OCCF)c(OC)cc4C3)cc2)cc1OC , thanks.
Result string: 3.14

----------
# System: P-gp
# protocol_summary: Apparent permeability in Caco-2 cells (BA/AB)
# Assay type: in vitro ADME
# test_conditions: human, BA/AB >2 = transported by P-gp, read-out: Apparent Permeability (B→A/A→B)
recorded_metric: efflux ratio at 120 min
Write the number on its own, no unit after it.

Query string: Record COc1cc(NC(=O)c2cnc3ccccc3c2)c(C(=O)Nc2ccc(CCN3CCc4cc(OCCF)c(OC)cc4C3)cc2)cc1OC : what is its efflux ratio at 120 min with P-gp?
Result string: 16

----------
# target_entity: MRP1 (Homo sapiens, UniProt P33527)
# Sequence (P33527 whole entry): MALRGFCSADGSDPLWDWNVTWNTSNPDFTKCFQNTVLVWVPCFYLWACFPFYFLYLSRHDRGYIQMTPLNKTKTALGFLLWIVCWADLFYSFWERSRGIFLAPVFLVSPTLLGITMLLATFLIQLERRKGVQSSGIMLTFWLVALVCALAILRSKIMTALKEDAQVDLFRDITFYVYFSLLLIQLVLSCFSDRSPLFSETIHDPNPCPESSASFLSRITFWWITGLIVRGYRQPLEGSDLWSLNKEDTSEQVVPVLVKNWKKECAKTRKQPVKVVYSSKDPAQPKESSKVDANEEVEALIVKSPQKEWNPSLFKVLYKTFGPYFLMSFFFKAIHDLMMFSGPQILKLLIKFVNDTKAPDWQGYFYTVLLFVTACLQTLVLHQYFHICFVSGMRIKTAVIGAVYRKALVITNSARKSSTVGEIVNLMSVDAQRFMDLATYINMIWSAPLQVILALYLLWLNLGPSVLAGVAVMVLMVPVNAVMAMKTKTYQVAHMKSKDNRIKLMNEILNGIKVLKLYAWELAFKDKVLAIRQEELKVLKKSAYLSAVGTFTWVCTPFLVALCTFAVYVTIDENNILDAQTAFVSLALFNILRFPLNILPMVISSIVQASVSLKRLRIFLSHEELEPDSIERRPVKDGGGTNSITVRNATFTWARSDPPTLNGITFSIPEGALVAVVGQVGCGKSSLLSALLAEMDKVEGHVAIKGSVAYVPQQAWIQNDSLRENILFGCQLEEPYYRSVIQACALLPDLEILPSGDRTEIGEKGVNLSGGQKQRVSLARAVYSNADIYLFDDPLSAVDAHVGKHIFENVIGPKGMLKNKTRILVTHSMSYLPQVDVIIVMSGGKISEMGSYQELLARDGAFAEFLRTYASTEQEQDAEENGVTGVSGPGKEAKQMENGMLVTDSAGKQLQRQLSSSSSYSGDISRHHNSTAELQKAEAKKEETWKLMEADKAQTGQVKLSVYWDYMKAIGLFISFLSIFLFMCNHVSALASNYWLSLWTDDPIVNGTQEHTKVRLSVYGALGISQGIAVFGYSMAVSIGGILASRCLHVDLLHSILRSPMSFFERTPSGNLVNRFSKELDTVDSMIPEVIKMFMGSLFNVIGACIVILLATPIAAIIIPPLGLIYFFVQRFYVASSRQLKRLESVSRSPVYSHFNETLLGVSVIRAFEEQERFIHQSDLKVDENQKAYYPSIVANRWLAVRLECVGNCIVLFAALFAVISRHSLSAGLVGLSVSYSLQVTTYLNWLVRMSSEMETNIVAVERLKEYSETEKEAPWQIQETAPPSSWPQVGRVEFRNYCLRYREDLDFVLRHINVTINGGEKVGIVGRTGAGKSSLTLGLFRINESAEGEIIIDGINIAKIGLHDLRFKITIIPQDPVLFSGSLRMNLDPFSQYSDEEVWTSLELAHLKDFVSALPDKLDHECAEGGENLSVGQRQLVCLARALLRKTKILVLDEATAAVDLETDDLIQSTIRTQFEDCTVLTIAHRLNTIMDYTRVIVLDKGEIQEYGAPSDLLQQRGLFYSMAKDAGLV
# protocol_summary: Activity in MDCK-MRP1 cells, fluorescent probe Calcein-AM
recorded_metric: EC50

compound	recorded_metric	value_measured
COc1cc(NC(=O)c2cnc3ccccc3c2)c(C(=O)Nc2ccc(CCN3CCc4cc(OCCF)c(OC)cc4C3)cc2)cc1OC [Formula 1a]	EC50	> 500 nM

// below: EC50 requested for another compound
Query string: Record COc1cc2c(cc1OC)CN(CCc1ccc(NC(=O)c3cc(OC)c(OC)cc3NC(=O)c3cnc4ccccc4c3)cc1)CC2 [Tariquidar, reference compound] : what is its EC50 with MRP1 (Homo sapiens, UniProt P33527)?
Result string: > 500 nM

----------
# target_entity: BCRP (Homo sapiens)
# Sequence (Q9UNQ0 1-655): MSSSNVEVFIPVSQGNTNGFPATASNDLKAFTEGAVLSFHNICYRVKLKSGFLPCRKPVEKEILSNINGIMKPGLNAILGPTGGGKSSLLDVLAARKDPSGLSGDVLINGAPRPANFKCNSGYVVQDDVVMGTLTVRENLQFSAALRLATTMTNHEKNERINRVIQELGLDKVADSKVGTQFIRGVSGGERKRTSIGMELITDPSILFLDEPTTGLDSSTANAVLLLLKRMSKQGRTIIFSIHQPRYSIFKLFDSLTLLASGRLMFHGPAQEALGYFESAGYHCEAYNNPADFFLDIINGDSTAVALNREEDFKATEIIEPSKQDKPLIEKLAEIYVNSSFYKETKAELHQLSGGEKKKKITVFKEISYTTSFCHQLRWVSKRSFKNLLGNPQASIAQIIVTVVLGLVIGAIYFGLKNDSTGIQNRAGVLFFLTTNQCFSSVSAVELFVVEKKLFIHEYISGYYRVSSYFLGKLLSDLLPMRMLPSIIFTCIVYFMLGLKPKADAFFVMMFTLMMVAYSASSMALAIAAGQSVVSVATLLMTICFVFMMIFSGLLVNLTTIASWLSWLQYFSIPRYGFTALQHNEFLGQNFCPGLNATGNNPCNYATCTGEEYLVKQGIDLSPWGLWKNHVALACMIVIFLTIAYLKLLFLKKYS
# protocol_summary: Activity in MDCK-BCRP cells, fluorescent probe Rhodamine
pEC50: −log10 of the molar value.
recorded_metric: pEC50

compound	value_measured
COc1cc2c(cc1OC)CN(CCc1ccc(NC(=O)c3cc(OC)c(OC)cc3NC(=O)c3cnc4ccccc4c3)cc1)CC2 [Tariquidar, reference compound]	< 7.10

// below: pEC50 requested for another compound
Query string: Need pEC50 of COc1cc(NC(=O)c2cnc3ccccc3c2)c(C(=O)Nc2ccc(CCN3CCc4cc(OCCF)c(OC)cc4C3)cc2)cc1OC [Formula 1a] , thanks.
Result string: < 6.30
